# measurementProtocol: NCI Yeast Anticancer Drug Screen. Data for the mec2-1 strain (AID 157)
# experimentalContext: S. cerevisiae mec2-1 strain, at 50.0 µM, hits give high values
This is part of a sample that, as a whole, favours compounds with a hit. Of some 79,000 tested, about 15% had one in any assay.
observable: growth inhibition (%)

molecule	measuredResult
C/C=C/C=C\C1OC(O)([C@H](CC)C(=O)NC/C=C/C=C(\C)[C@H](OC)C(C)C2OC(\C=C/C=C/C=C(\C)C(=O)c3c(O)ccn(C)c3=O)[C@H](O)[C@@H]2O)C(O)C(O)C1(C)C (stereo partly drawn)	9.5
CC(C)(Oc1ccc(-c2cccc3ccccc23)cc1)C(=O)O	13.7
CC(NC(=O)OCc1ccccc1)C(=O)NC(C(=O)O)C(C)C (stereo not drawn)	38
Cc1ccc([S@](=O)c2occc2C=O)cc1	88.5
NC(CCCCCC(N)C(=O)O)C(=O)O (stereo not drawn)	9.1
CC(=O)Nc1ccc(/C=N\NC(=O)c2ccco2)cc1	-2.6
OCCN1COc2cc3c(cc2C1)OCN(CCO)C3	-4.9
CCN(CC)CCNc1cc(C)nc2c1ccc1c2ccc2c(NCCN(CC)CC)cc(C)nc21	98
O=C1c2ccccc2C(=O)c2c(NCCNCCO)ccc(O)c21	84.7
CCCn1c2ccccc2c2ccc3c(c21)C(=O)C=CC3=O	61.9
Clc1nc(Cl)nc(N2CCCc3ccccc32)n1	70.9
O=C1NC(c2ccccc2)(c2cccs2)C(=O)N1C1c2ccccc2Oc2ccccc21 (stereo not drawn)	84.7
CCOC(=O)C1CC2(CCC1N)c1ccccc1-c1ccccc12 (stereo not drawn)	47.5
CCOC(=O)C(NC(C)=O)[CH](c1ccccc1)[Sn]([Cl])([c]1ccccc1)[c]1ccccc1 (stereo not drawn)	65.7
CCC(/C=C/c1ccccc1)=N\Nc1ccccc1	79
CC(CCCN(C)Cc1ccccc1)Nc1ccnc2cc(Cl)ccc12 (stereo not drawn)	98.3
N#CC(Nc1cccc(C(F)(F)F)c1)c1ccccc1C(F)(F)F (stereo not drawn)	92
CCOC(=O)/C=C(\CC(=O)OCC)C(=O)OCC	99.7
CCOc1ccc(N=Nc2c(C)nn(C(=S)SC)c2OCC)cc1	99.7
COc1ccc(/C=C/c2ccnc3ccccc23)cc1OC	90.9
CC(=O)N(C)c1ccc(/C=C2\C=Cc3ccccc32)cc1	39.7
COc1ccc(C(C)=O)c(OC(=O)c2ccccc2)c1OC(=O)c1ccccc1	10.2
COc1ccc(/C=C/C(C(=O)O)C(=O)O)cc1	76

----------
# measurementProtocol: NCI Yeast Anticancer Drug Screen. Data for the sgs1 mgt1 strain (AID 161);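 note: 0% = growth of cultures given vehicle only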
# experimentalContext: S. cerevisiae sgs1 mgt1 strain, at 50.0 µM, hits give high values
Compounds without any hit were thinned out: in the full panel of roughly 79,000, 15% have a hit.
observable: growth inhibition (%)

                                    molecule         observable  unitname  measuredresult
 0      Cc1cc(NS(=O)(=O)c2ccc(N)cc2)no1.[Ag]  growth inhibition         %            99.7
 1                  O=C1Nc2c(ccc(Cl)c2I)C1=O  growth inhibition         %            92.3
 2                       Nc1ccccc1CCc1ccccc1  growth inhibition         %            41.8
 3         CCN(C(C)=O)c1ccc2c(c1)Cc1ccccc1-2  growth inhibition         %            96.8
 4              Cc1cc(OC(=O)CCl)ccc1C(C)(C)C  growth inhibition         %            56.4
 5  CC(C)(C)CC(C)(C)NCc1cc(Cl)cc(Cc2cc(Cl)ccc2O)c1O  growth inhibition         %            48.7
 6         Cc1ccccc1N1C(=O)C(=O)c2cccc(C)c21  growth inhibition         %            99.7
 7  CCOC(=O)C1(C#N)C(c2ccccc2)C1(C#N)C#N (stereo not given)  growth inhibition         %            98.5
 8  Cc1ccc(S(=O)(=O)OCCCCOS(=O)(=O)c2ccc(C)cc2)cc1  growth inhibition         %            15.7
 9  COc1ccc(C=C(C(=O)c2ccccc2)C(=O)c2ccccc2)cc1  growth inhibition         %            91.3
10  CCCCCCCCCCCCS(=O)(=O)CC(Br)C(=O)c1ccco1 (stereo not given)  growth inhibition         %            95.3
11            COc1cnc2cc3c4c(cccc4c2c1)NC3=O  growth inhibition         %            79.7
12  OC1OCC(OCc2ccccc2)C(OCc2ccccc2)C1OCc1ccccc1 (stereo not given)  growth inhibition         %            96.7
13  CCC(C1SC(=S)NC1=O)C1SC(=S)NC1=O (stereo not given)  growth inhibition         %            99.4
14  C1CCC(C2=NC3CCCCC3SC2)CC1 (stereo not given)  growth inhibition         %            93.9
15    O=C(CSc1nnc(Cc2ccccc2)o1)Nc1ccc(Cl)cc1  growth inhibition         %            48.6
16  CCc1cccc(C(C)C)c1N1C(=O)C(=O)C(c2nc3ccccc3s2)C(=O)C1=O  growth inhibition         %            83.8
17            C=C(Br)COc1ccc2c(C)cc(=O)oc2c1  growth inhibition         %            75.2
18  OC(c1cc(-c2ccccc2)nc2cc(Cl)ccc12)C1CCCCN1 (stereo not given)  growth inhibition         %              37
19                             Clc1nnc(Cl)s1  growth inhibition         %            19.4
20                    CC(C)(C)c1ccc(O)c(O)c1  growth inhibition         %            79.8
21  C/C(=N/NC(=S)N1CCCCC1)c1cccc(/C(C)=N\NC(=S)N2CCCCC2)n1  growth inhibition         %            74.7
22      COc1cc(/C=C/C(=O)Sc2ccccc2)cc(OC)c1O  growth inhibition         %            59.2
23                     Cc1ccnc2ccc3ccccc3c12  growth inhibition         %            20.4
24  CC1=C(C(=O)Nc2cc(C)ccc2C)C(c2cccc([N+](=O)[O-])c2)C(C(=O)Nc2cc(C)ccc2C)=C(C)N1  growth inhibition         %            26.7
